Biological target: T1, human fractalkine (human, UniProt P78423 25-100, limits assumed)
T1 sequence (looked up): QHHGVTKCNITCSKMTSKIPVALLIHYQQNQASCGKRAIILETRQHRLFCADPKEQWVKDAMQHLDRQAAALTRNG
Assay: ELISA, hybridoma supernatant
ASSAY ENDPOINT: binding result

Solved cases (5 shown):
BINDER | binding result
6D21 (antibody, IgG1, V domains shown, IgG1; ATCC PTA-3989; also called 6D21.1) VH: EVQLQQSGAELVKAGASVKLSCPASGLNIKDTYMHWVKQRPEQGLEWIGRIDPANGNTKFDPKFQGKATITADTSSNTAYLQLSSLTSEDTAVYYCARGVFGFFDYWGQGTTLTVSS VL: DIQMTQSSSSFSVSLGDRVTITCKATEDIYNRLAWYQQKPGSAPRLLISGATSLETGVPSRFSGSGSGKDYTLSITSLQTEDVATYYCQQFWSAPYTFGGGTKLEIK | no binding
7H1 (antibody, IgG1, V domains shown, IgG1; ATCC PTA-3985; also called 7H1.1) VH: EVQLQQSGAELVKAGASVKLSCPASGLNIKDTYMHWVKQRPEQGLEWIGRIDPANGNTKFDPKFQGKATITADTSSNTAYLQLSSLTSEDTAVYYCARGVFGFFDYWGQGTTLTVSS VL: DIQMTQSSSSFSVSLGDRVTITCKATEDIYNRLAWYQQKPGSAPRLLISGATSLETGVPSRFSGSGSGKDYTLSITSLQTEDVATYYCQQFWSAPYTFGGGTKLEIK | no binding
6I5 (antibody, IgG1, V domains shown, IgG1; ATCC PTA-3986; also called 615; 6I5.1) VH: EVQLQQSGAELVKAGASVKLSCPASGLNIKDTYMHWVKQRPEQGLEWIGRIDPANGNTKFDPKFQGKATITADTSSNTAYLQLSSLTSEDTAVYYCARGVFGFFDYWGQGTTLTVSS VL: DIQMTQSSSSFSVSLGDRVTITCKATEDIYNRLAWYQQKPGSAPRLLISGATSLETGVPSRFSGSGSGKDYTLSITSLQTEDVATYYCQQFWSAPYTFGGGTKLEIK | no binding
11K2 (antibody, IgG1, V domains shown, ATCC PTA-3987; also called 11K2.1; 11K2 mAb) VH: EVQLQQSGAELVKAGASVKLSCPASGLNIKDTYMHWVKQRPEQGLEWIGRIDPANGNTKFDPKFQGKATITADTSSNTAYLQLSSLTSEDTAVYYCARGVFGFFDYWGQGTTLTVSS VL: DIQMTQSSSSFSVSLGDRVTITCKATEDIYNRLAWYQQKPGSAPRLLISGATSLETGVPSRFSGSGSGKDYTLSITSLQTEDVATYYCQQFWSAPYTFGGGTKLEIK | no binding
4N4 (antibody, IgG1, V domains shown, IgG1; ATCC PTA-3994; also called 4N4.1) VH: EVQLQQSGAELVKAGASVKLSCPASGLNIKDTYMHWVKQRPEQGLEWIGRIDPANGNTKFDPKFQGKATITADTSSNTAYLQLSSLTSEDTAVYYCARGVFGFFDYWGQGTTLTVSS VL: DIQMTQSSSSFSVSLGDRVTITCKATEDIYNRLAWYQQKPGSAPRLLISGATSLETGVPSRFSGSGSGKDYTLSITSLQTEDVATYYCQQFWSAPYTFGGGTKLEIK | no binding

Record summary for 5A13 (antibody, IgG1, V domains shown, IgG1; ATCC PTA-3995; also called 5A13.1) VH: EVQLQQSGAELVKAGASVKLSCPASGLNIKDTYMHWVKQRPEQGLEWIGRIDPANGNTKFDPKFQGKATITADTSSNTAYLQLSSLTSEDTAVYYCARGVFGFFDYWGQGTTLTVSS VL: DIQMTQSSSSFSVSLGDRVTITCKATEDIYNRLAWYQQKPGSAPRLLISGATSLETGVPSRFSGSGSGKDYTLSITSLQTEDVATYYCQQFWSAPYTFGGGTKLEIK : reported binding result = no binding
